Entries and their Kd values follow.
targetOrTestSystem: T1, human IgG2 (human, UniProt P01859-1 1-326 = IgG part)
T1 construct: Calbiochem; plasma IgG2 in anisotropy studies, myeloma-derived (cat. 400122) in batch/column studies; also called hIgG2
T1 sequence (P01859 other isoform, or with tags, fused parts or gaps): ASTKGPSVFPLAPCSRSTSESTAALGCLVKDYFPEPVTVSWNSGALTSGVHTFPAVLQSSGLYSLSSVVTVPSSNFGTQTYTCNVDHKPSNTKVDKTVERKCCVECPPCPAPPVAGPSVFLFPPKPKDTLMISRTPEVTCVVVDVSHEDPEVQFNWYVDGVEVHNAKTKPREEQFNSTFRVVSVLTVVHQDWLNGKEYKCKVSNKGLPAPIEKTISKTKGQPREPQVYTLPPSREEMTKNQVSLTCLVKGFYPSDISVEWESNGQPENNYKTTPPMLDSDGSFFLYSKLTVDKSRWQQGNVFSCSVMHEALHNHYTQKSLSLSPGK
testProtocol: fluorescence anisotropy; pH 7.4 PBS
Positions of bridges follow the written chain, without caps; N, C: chain ends.
Your answer is read as nM, so omit the unit and give the number.

See these solved cases before continuing.
IN: Which Kd reading was recorded for the binder Ac-AGYYWCNYWGLCPDQGTPGPEGGGK-NH2 (not fully specified (bridges); printed as Ac-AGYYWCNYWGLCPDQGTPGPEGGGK-NH2; cysteine pairing not given here; also: fluorescein-labelled form in anisotropy assays, place not given here, Fluorescein-labelled in anisotropy assays; immobilised in batch assays) [DX254] ?
OUT: 1100

IN: Let us now turn to Ac-GDDDHCYWFREWFNSECPHGEPGPEGGGK-NH2 (not fully specified (bridges); printed as Ac-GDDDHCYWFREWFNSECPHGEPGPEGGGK-NH2; cysteine pairing not given here; also: fluorescein-labelled form in anisotropy assays, place not given here, Fluorescein-labelled in anisotropy assays; immobilised in batch/column assays) [DX252]
OUT: 3600

Kindly review the next binder as well.
IN: Which Kd reading was recorded for the binder Ac-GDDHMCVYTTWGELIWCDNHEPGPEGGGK-NH2 (disulfide 6-17 (inferred), Synthetic disulfide-cyclised peptide) [DX249] ?
OUT: 1100

Provenance of the data: patent US20030199671A1
